System: Human adenocarcinoma cell line LoVo
assay-summary: Cell Based Screen for Inhibitors of Raf Kinase, LoVo cells
protocol-conditions: Homo sapiens, 96 h, four days, SRB
pIC50: −log10 of the molar value.
quantity-name: pIC50

Here is how some compounds turned out for pIC50.
Kindly note the recorded pIC50 for CN(CCO)Cc1ccc(-c2ccc3c(Nc4ccc(Sc5nccn5C)c(Cl)c4)c(C#N)cnc3c2)nc1 [Example 106] , which is 8.19

Record CCN1CCN(Cc2ccc(-c3ccc4c(Nc5ccc(Sc6nccn6C)c(Cl)c5)c(C#N)cnc4c3)cn2)CC1 [Example 220] . Reported pIC50: 8.11

Data point: COc1cc2c(Nc3ccc(Sc4nccn4C)c(Cl)c3)c(C#N)cnc2cc1-c1ccc(CN2CCOCC2)cc1 [Example 123] ; pIC50 = 7.40

# pIC50 of Cn1ccnc1Sc1ccc(Nc2c(C#N)cnc3cc(-c4ccc(CN5CCOCC5)nc4)ccc23)cc1Cl [Example 109] = 8.17

pIC50 recorded for this compound, CN1CCN(Cc2ccc(-c3ccc4c(Nc5ccc(Sc6nccn6C)c(Cl)c5)c(C#N)cnc4c3)cc2)CC1 [Example 135] , is 8.17

A. Cn1ccnc1Sc1ccc(Nc2c(C#N)cnc3cc(-c4ccc(CN5CCN(C(=O)OC(C)(C)C)CC5)cc4)ccc23)cc1Cl [Example 137]
B. Cn1ccnc1Sc1ccc(Nc2c(C#N)cnc3cc(-c4ccc(CN5CCCCC5)s4)ccc23)cc1Cl [Example 160]
# return whichever of A and B has the smaller pIC50 Lab note: record the label of whichever item you select. A
(A: 7.31, B: 8.39)

P. N#Cc1cnc2cc(-c3ccc(CN4CCOCC4)c(CN4CCOCC4)c3)ccc2c1Nc1ccc(OCc2ccccc2)c(Cl)c1 [Example 132]
Q. Cn1ccnc1Sc1ccc(Nc2c(C#N)cnc3cc(-c4ccc(CN5CCC(O)CC5)cn4)ccc23)cc1Cl [Example 172]
Which has the smaller recorded pIC50, P or Q ? State the label of the item chosen. P
